I'd appreciate it if you could supply clearance values for the items below.
Experiment: Clearance in iv dosed mouse
Format: ADME, organism-based
Details: in vivo
Starred links: 1 amine or outer side, 2 acyl side, 3 side chain; linkers in the order of their positions; H or OH if unused. Non-standard residues stand in square brackets, D forms with d. Residues, ends and D or L forms follow the SMILES beside them. *: point of attachment. X6 = C[C@H](CO[C@H](CC1C[C@H]2CC[C@@H](C1)C2)[C@@H](C)C(=O)[*:2])N[*:1]; X3 = C[C@H](CO[C@H](CC1CC2(CCC2)C1)[C@@H](C)C(=O)[*:2])N[*:1]; X1 = CCCCCC[C@@H](OC[C@@H](C)N[*:1])[C@@H](C)C(=O)[*:2]; Cyclobutyl(trans-3-NH2) = N[C@H]1C[C@H](*)C1; Gly(cHept) = N[C@H](C(=O)O)C1CCCCCC1; NMeNva = CCC[C@H](NC)C(=O)O; X2 = NC[C@H]1C[C@H](*)C1; Dap = NC[C@H](N)C(=O)O; X5 = NCCCNCCC*
Give bare numbers, in mL/min/kg.

>  <molecule>
CCC[C@H]1C(=O)N[C@@H](C2CCCCCC2)C(=O)N[C@@H](CN)C(=O)N[C@@H](COCCCNCCCN)C(=O)N[C@H](C)CO[C@H](CC2C[C@H]3CC[C@@H](C2)C3)[C@@H](C)C(=O)N1C (stereo partly specified) (cyclo([Dap]S(X5)[X6][NMeNva][Gly(cHept)]))

>  <clearance (mL/min/kg)>
68

$$$$
>  <molecule>
CCC[C@H]1C(=O)N[C@@H](C2CCCCCC2)C(=O)N[C@@H](CN)C(=O)N[C@@H](CO[C@H]2C[C@H](N)C2)C(=O)N[C@H](C)CO[C@H](CC2CC3(CCC3)C2)[C@@H](C)C(=O)N1C (cyclo([Dap]S(Cyclobutyl(trans-3-NH2))[X3][NMeNva][Gly(cHept)]))

>  <clearance (mL/min/kg)>
11

$$$$
>  <molecule>
CCC[C@H]1C(=O)N[C@@H](C2CCCCCC2)C(=O)N[C@@H](CN)C(=O)N[C@@H](COCCCNCCCN)C(=O)N[C@H](C)CO[C@H](CC2CC3(CCC3)C2)[C@@H](C)C(=O)N1C (cyclo([Dap]S(X5)[X3][NMeNva][Gly(cHept)]))

>  <clearance (mL/min/kg)>
12

$$$$
>  <molecule>
CCCCCC[C@H]1OC(=O)CNC(=O)[C@H]([C@H](C)O)NC(=O)[C@H](CO)NC(=O)[C@H]([C@H](C)CC)NC(=O)[C@H](CC(C)C)N(C)C(=O)[C@@H]1C

>  <clearance (mL/min/kg)>
286

$$$$
>  <molecule>
CCCCCC[C@H]1OC[C@@H](C)NC(=O)[C@H](CO[C@H]2C[C@H](CN)C2)NC(=O)[C@H](CN)NC(=O)[C@H](C2CCCCCC2)NC(=O)[C@H](CCC)N(C)C(=O)[C@@H]1C (cyclo([Dap]S(X2)[X1][NMeNva][Gly(cHept)]))

>  <clearance (mL/min/kg)>
2.9

$$$$

## Task Any idea what clearance was measured for CCC[C@H]1C(=O)N[C@@H](C2CCCCCC2)C(=O)N[C@@H](CN)C(=O)N[C@@H](CO[C@H]2C[C@H](N)C2)C(=O)N[C@H](C)CO[C@H](CC2C[C@H]3CC[C@@H](C2)C3)[C@@H](C)C(=O)N1C (stereo partly drawn) (cyclo([Dap]S(Cyclobutyl(trans-3-NH2))[X6][NMeNva][Gly(cHept)])) ?
## Result 17

Hey, just so you know, these numbers are from ChEMBL document CHEMBL4665734.
